Lab note: IC50 readings collected with human ADAMTS6 (Homo sapiens (Human)) for the following molecules.
Sequence (Q9UKP5 other isoform, or with tags, fused parts or gaps): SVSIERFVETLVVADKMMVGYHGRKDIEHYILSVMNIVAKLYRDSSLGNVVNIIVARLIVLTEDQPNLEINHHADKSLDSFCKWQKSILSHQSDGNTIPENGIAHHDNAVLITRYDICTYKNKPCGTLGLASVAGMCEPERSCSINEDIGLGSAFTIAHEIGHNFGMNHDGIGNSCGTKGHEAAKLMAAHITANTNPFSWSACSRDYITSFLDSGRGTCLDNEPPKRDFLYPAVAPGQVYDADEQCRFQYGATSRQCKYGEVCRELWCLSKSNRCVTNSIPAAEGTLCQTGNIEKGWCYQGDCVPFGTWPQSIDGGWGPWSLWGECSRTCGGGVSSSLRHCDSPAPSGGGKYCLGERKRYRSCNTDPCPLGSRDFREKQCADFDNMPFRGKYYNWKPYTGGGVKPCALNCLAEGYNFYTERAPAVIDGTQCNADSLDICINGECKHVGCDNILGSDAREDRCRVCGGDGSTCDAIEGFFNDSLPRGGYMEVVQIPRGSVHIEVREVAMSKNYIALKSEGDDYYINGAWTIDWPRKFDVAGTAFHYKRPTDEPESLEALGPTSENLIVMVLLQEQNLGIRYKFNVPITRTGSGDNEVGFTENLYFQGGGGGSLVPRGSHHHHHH

The examples below pair each entry with its known result.
COc1cc(N2CCN(C(=O)CCC3(C4CC4)NC(=O)NC3=O)C[C@@H]2C)cc(F)c1F (stereo partly drawn): 0.001 to 25 nM
COc1cc(N2CCN(C(=O)[C@@H](C)C[C@@]3(C)NC(=O)NC3=O)C[C@@H]2C)cc(OC)c1Cl (stereo in doubt): 0.001 to 25 nM
COc1cc(N2CCN(C(=O)CCC3(C)NC(=O)NC3=O)CC2)cc(OC)c1Cl (stereo not drawn): 0.001 to 25 nM
COc1cc(N2CCN(C(=O)CC[C@@]3(C)NC(=O)NC3=O)C[C@@H]2C)ccc1Cl: 0.001 to 25 nM
COc1cc(N2CCN(C(=O)[C@@H](C)C[C@@]3(c4ccccn4)NC(=O)NC3=O)CC2)cc(F)c1F: 0.001 to 25 nM

# input molecule: "CCc1cc(N2CCN(C(=O)CC[C@@]3(C)NC(=O)NC3=O)CC2)cc(OC)c1Cl" ; wanted: its IC50
0.001 to 25 nM

Now consider COc1cc(F)cc(N2CCN(C(=O)CCC3(c4cccnc4)NC(=O)NC3=O)CC2)c1 (stereo not drawn) .
25 to 50 nM

Now consider "COc1cc(N2CCN(C(=O)CC[C@H]3NC(=O)NC3=O)CC2)cc(F)c1F" .
50 to 100 nM

Now consider "COc1cc(N2CCN(C(=O)CC[C@@]3(C)NC(=O)NC3=O)CC2)cc(C)c1Cl" .
0.001 to 25 nM

---

- tested_target: human MMP13 (Homo sapiens (Human), UniProt P45452)
- measurement_description: hMMP13 assay, Protocol 1 (390 MMP FRET Substrate I, Chemicon enzyme)
- Assay type: biochemical
- condition_summary: Protocol 1, human MMP13 (Chemicon), read-out: hMMP-13 potency IC50
reported_property: IC50

# input compound: COc1cc(N2CCN(C(=O)CCC3(C)NC(=O)NC3=O)C[C@@H]2C)c(C)cc1Cl (stereo partly drawn) [Cpd 36] ; wanted: its IC50
> 100 nM

Now consider COc1cc(OC)cc(N2CCN(C(=O)CC[C@H]3NC(=O)NC3=O)C[C@@H]2C)c1 [Cpd 132] .
> 100 nM

Now consider COc1cc(N2CCN(C(=O)CCC3(C4CC4)NC(=O)NC3=O)CC2)cc(F)c1F (stereo not drawn) [Cpd 18] .
> 100 nM

Now consider COc1cc(N2CCN(C(=O)CC[C@H]3NC(=O)NC3=O)CC2)cc(OC)c1Cl [Cpd 135] .
> 100 nM

Now consider COc1cc(N2CCN(C(=O)[C@@H](C)C[C@@]3(C4CC4)NC(=O)NC3=O)C[C@@H]2C)cc(F)c1F [Cpd 29] .
> 100 nM

Now consider COc1cc(N2CCN(C(=O)CC[C@H]3NC(=O)NC3=O)CC2)cc(Cl)c1Cl [Cpd 145] .
> 100 nM

Now consider COc1cc(F)cc(N2CCN(C(=O)[C@@H](C)C[C@@]3(C)NC(=O)NC3=O)CC2)c1 [Cpd 27] .
> 100 nM

Now consider COc1cc(N2CCN(C(=O)CCC3(C4CC4)NC(=O)NC3=O)C[C@@H]2C)cc(F)c1F (stereo partly drawn) [Cpd 21] .
> 100 nM

Now consider COc1cc(OC)cc(N2CCN(C(=O)CCC3(C)NC(=O)NC3=O)C[C@@H]2C)c1 (stereo partly drawn) [Cpd 25] .
> 100 nM

Now consider COc1cc(N2CCN(C(=O)CC[C@@]3(C4CC4)NC(=O)NC3=O)C[C@@H]2C)cc(F)c1F [Cpd 37] .
> 100 nM

Now consider COc1cc(N2CCN(C(=O)CCC3(C)NC(=O)NC3=O)CC2)cc(OC)c1Cl (stereo not drawn) [Cpd 31] .
> 100 nM

Now consider COc1cc(N2CCN(C(=O)[C@@H](C)C[C@@]3(C)NC(=O)NC3=O)C[C@@H]2C)cc(F)c1F (mixture of isomers) [Cpd 42] .
> 100 nM

---

IC50 values, listed per item
- tested_target: human ADAMTS-5 (Homo sapiens (Human), UniProt Q9UNA0)
- Sequence (Q9UNA0 262-930): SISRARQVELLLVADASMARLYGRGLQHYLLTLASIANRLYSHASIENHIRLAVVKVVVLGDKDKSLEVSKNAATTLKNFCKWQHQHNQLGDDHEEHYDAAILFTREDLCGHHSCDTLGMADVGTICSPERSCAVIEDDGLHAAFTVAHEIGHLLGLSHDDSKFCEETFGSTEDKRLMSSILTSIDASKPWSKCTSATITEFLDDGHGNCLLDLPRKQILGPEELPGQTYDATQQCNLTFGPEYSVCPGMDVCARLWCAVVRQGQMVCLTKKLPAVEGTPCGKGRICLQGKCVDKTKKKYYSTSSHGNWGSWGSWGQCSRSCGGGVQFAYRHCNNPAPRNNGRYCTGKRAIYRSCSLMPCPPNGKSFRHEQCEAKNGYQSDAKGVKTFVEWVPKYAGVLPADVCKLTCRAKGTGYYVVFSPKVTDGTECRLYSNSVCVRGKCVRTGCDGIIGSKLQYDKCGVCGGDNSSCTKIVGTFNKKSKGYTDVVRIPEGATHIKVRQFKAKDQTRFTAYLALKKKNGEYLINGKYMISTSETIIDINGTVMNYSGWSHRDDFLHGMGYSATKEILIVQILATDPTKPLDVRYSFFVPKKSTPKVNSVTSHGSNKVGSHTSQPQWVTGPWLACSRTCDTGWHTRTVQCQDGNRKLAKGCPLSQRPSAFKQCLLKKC
- measurement_description: hADAMTS-5 TBIS-1 cleavage assay, Protocol 3
- Format: biochemical
- condition_summary: 90 min at 37° C., read-out: hADAMTS-5 potency IC50

The examples below pair each entry with its known result.
COc1cc(N2CCN(C(=O)CC[C@@]3(C)NC(=O)NC3=O)C[C@@H]2C)cc(OC)c1F [Cpd 89]: > 100 nM
COc1cc(F)cc(N2CCN(C(=O)CCC3(c4cccnc4)NC(=O)NC3=O)CC2)c1 (stereo not shown) [Cpd 23]: 50 to 100 nM
COc1cc(N2CCN(C(=O)CCC3(c4cccc(C)n4)NC(=O)NC3=O)C[C@@H]2C)cc(F)c1F (stereo partly shown) [Cpd 61]: 25 to 50 nM

Switching to the query record.
# input compound: CCc1cc(N2CCN(C(=O)CC[C@@]3(C)NC(=O)NC3=O)CC2)cc(OC)c1Cl [Cpd 115] ; wanted: its IC50
> 100 nM

---

Lab note: IC50 readings collected with UniProt:Q9UKP5 for the following compounds.

The examples below pair each entry with its known result.
COc1cc(OC)cc(N2CCN(C(=O)CC[C@H]3NC(=O)NC3=O)C[C@@H]2C)c1: 25 to 50 nM
COc1cc(F)c(F)cc1N1CCN(C(=O)CC[C@@]2(C)NC(=O)NC2=O)C[C@@H]1C: > 100 nM
COc1ccc(OC(F)(F)F)c(N2CCN(C(=O)CC[C@@]3(C)NC(=O)NC3=O)C[C@@H]2C)c1: > 100 nM

Switching to the query record.
# input compound: "COc1cc(N2CCN(C(=O)CC[C@H]3NC(=O)NC3=O)C[C@H]2C)cc(F)c1F" ; wanted: its IC50
> 100 nM

---

- tested_target: rnADAMTS-5 (1-564-6H) (Rattus norvegicus (Rat), UniProt Q6TY19)
- Sequence (Q6TY19 entry or part of it): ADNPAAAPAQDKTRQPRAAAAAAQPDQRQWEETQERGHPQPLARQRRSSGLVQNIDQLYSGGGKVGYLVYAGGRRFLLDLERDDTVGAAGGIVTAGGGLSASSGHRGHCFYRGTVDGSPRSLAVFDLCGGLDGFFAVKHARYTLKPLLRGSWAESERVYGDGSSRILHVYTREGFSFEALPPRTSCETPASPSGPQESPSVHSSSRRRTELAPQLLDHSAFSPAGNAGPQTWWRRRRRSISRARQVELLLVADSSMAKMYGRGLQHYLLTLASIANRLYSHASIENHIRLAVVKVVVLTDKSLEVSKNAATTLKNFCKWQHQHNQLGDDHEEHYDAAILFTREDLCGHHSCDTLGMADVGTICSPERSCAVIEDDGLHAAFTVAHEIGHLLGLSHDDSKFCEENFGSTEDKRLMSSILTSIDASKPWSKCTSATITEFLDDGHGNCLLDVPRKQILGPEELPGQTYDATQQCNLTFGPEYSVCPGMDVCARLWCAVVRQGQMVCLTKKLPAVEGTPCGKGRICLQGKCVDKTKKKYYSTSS
pIC50: −log10 of the molar value.
pIC50 values, listed per item

COc1cc(N2CCN(C(=O)[C@@H](C)C[C@@]3(C)NC(=O)NC3=O)CC2)cc(OC)c1Cl (stereo in doubt) [Cpd 40]: < 7.00

Param readout= pIC50; system= rnADAMTS-5 (1-564-6H) (Rattus norvegicus (Rat), UniProt Q6TY19); entry= COc1cc(F)cc(N2CCN(C(=O)[C@@H](C)C[C@@]3(C)NC(=O)NC3=O)CC2)c1 [Cpd 27] ; returns value.
7.30 to 7.60

Now consider COC[C@]1(C[C@H](C)C(=O)N2CCN(c3cc(F)c(F)c(OC)c3)CC2)NC(=O)NC1=O [Cpd 59] .
7.60 to 12.00

Now consider COc1cc(N2CCN(C(=O)CC[C@H]3NC(=O)NC3=O)C[C@@H]2C)cc(F)c1Cl [Cpd 144] .
7.00 to 7.30

Now consider COc1cc(N2CCN(C(=O)CCC3(C)NC(=O)NC3=O)CC2)cc(OC)c1Cl (stereo not shown) [Cpd 31] .
< 7.00

Now consider COc1cc(N2CCN(C(=O)[C@@H](C)C[C@@]3(C4CC4)NC(=O)NC3=O)C[C@@H]2C)cc(F)c1F [Cpd 29] .
7.30 to 7.60

Now consider COc1cc(N2CCN(C(=O)CC[C@H]3NC(=O)NC3=O)C[C@@H]2C)cc(OC)c1Cl [Cpd 139] .
7.00 to 7.30

Now consider COc1cc(N2CCN(C(=O)CC[C@H]3NC(=O)NC3=O)CC2)cc(OC)c1Cl [Cpd 135] .
< 7.00

Now consider COc1cc(N2CCN(C(=O)CC[C@@]3(C4CC4)NC(=O)NC3=O)C[C@@H]2C)cc(F)c1F [Cpd 37] .
7.60 to 12.00

Now consider COc1cc(N2CCN(C(=O)CCC3(C)NC(=O)NC3=O)CC2)c(C)cc1Cl (stereo not shown) [Cpd 34] .
< 7.00

Now consider COc1cc(N2CCN(C(=O)[C@@H](CO)C[C@@]3(C)NC(=O)NC3=O)CC2)cc(F)c1F [Cpd 56] .
7.30 to 7.60

Now consider COc1cc(F)cc(N2CCN(C(=O)CCC3(C4CC4)NC(=O)NC3=O)CC2)c1 (stereo not shown) [Cpd 15] .
7.00 to 7.30

Now consider COc1cc(F)cc(N2CCN(C(=O)CCC3(c4cccnc4)NC(=O)NC3=O)CC2)c1 (stereo not shown) [Cpd 23] .
7.00 to 7.30

Now consider COc1cccc(N2CCN(C(=O)CCC3(c4cccnc4)NC(=O)NC3=O)CC2)c1 (stereo not shown) [Cpd 6] .
< 7.00

Now consider COc1cc(N2CCN(C(=O)[C@@H](C)C[C@@]3(C)NC(=O)NC3=O)CC2)cc(F)c1F (stereo in doubt) [Cpd 43] .
7.60 to 12.00

Now consider C[C@H]1CN(C(=O)CC[C@@]2(C)NC(=O)NC2=O)CCN1c1ccc(Cl)c(OC(F)(F)F)c1 [Cpd 86] .
< 7.00
